studyTarget: HCN4 C-Linker-CNBD (Homo sapiens, UniProt Q9Y3Q4)
Construct: the passenger domain human HCN4 C-Linker-CNBD; CtxB signal peptide (N, cleaved yes); His-Tag (N); made in house; host or cells: E. coli BL21 (OmpT-deficient)
assayComment: Competitive binding assay, displacement of 8-Fluo-cAMP, flow cytometry
conditionInfo: Ki determined graphically
measuredQuantity: Ki (µM)
Quick note: give the figure in µM, leave out the unit.

Input: Checklist item: Ki tested on HCN4 C-Linker-CNBD (Homo sapiens, UniProt Q9Y3Q4), entry Nc1ncnc2c1ncn2C1OC2COP(=O)(O)OC2C1O (stereo not shown) [cAMP, Adenosine-3′,5′-cyclic monophosphate] , value?
Output: 11.7

----------
studyTarget: HCN4 C-Linker-CNBD (Homo sapiens, UniProt Q9Y3Q4)
Construct: the passenger domain human HCN4 C-Linker-CNBD; CtxB signal peptide (N, cleaved yes); His-Tag (N); made in house; host or cells: E. coli BL21 (OmpT-deficient)
assayComment: Competitive binding assay, displacement of 8-Fluo-cAMP, flow cytometry
conditionInfo: 50 nM 8-Fluo-cAMP; read-out: inhibitory constant (Ki), calculated
measuredQuantity: Ki
Answers without a unit are incomplete; give the number and then its unit.

Input: Look at this compound and give its reported Ki. Nc1ncnc2c1ccn2[C@@H]1O[C@@H]2COP(=O)(O)O[C@H]2[C@H]1O [7-CH-cAMP]
Output: 159 nM

----------
studyTarget: HCN4 C-Linker-CNBD (Homo sapiens, UniProt Q9Y3Q4)
Construct: the passenger domain human HCN4 C-Linker-CNBD; CtxB signal peptide (N, cleaved yes); His-Tag (N); made in house; host or cells: E. coli BL21 (OmpT-deficient)
Sequence (Q9Y3Q4 521-723 limits assumed): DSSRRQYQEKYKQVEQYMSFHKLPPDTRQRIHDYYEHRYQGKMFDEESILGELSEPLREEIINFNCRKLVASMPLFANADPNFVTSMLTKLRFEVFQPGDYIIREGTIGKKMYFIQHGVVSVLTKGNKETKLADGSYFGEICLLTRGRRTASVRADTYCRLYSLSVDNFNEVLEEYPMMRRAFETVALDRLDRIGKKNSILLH
assayComment: Competitive binding assay, displacement of 8-Fluo-cAMP, flow cytometry
conditionInfo: calculated Ki
measuredQuantity: pKi
Just the number, please; pKi means minus log10 of the concentration in mol/L.

Input: Which pKi value belongs to Nc1ncnc2c1ncn2C1OC2COP(=O)(O)OC2C1O (stereo not shown) [cAMP, Adenosine-3′,5′-cyclic monophosphate] ?
Output: 5.07

----------
studyTarget: HCN4 C-Linker-CNBD (Homo sapiens)
measuredQuantity: Kd (µM)
Output spec: scalar in µM, unitless text.

Input: Which Kd reading was recorded for the molecule Nc1ncnc2c1nc(SCCNC(=S)Nc1ccc(-c3c4ccc(=O)cc-4oc4cc(O)ccc34)c(C(=O)O)c1)n2[C@@H]1O[C@@H]2COP(=O)(O)O[C@H]2[C@H]1O ?
Output: 0.173

----------
studyTarget: HCN4 C-Linker-CNBD (Homo sapiens, UniProt Q9Y3Q4)
Construct: the passenger domain human HCN4 C-Linker-CNBD; CtxB signal peptide (N, cleaved yes); His-Tag (N); made in house; host or cells: E. coli BL21 (OmpT-deficient)
assayComment: Competitive binding assay, displacement of 8-Fluo-cAMP, flow cytometry
conditionInfo: 50 nM 8-Fluo-cAMP; read-out: IC50 for 8-Fluo-cAMP binding
measuredQuantity: IC50 (nM)
// note: answer is a bare numeric in nM

Input: I would be grateful if you could share the reported IC50 for Nc1ncnc2c1ccn2[C@@H]1O[C@@H]2COP(=O)(O)O[C@H]2[C@H]1O [7-CH-cAMP] .
Output: 230
